B1: WDFY1 (parent)
chain: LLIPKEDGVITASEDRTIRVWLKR

variants of: B1; assay: protein stability index of a GFP-peptide fusion (GPS, HEK-293T) (PSI 1-6); higher = more stable; conditions: c terminus: a fixed tail appended;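 also: lentivirally expressed fusions sorted by FACS into six bins by GFP to DsRed ratio, PSI derived from sequencing read proportions per bin multiplied by bin number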
Here the recorded protein stability index is given for each entry.
Give a plain numeric answer without units written out.

INSERT INTO measurements (mutationcode, quantitativeresult) VALUES
  ('W21F', 3.61),
  ('L1D', 3.54),
  ('V20H', 2.1),
  ('P4L', 1.79),
  ('P4Y', 1.51),
  ('A12Q', 2.18);

Q: Fill in the blank: the reported protein stability index of R16V is ____.
Result: 1.95

Q: Fill in the blank: the reported protein stability index of S13I is ____.
Result: 2.57

Q: Fill in the blank: the reported protein stability index of I10C is ____.
Result: 1.94

Q: Fill in the blank: the reported protein stability index of D7M is ____.
Result: 1.44

Q: Fill in the blank: the reported protein stability index of L1I is ____.
Result: 2.1

Q: Fill in the blank: the reported protein stability index of E6S is ____.
Result: 2.06

Q: Fill in the blank: the reported protein stability index of L2A is ____.
Result: 2.88

Q: Fill in the blank: the reported protein stability index of W21R is ____.
Result: 2.77

Q: Fill in the blank: the reported protein stability index of T11W is ____.
Result: 1.72

Q: Fill in the blank: the reported protein stability index of T17H is ____.
Result: 3.16

Q: Fill in the blank: the reported protein stability index of K5T is ____.
Result: 1.62

Q: Fill in the blank: the reported protein stability index of D15T is ____.
Result: 1.19

Q: Fill in the blank: the reported protein stability index of D7A is ____.
Result: 2.06

Q: Fill in the blank: the reported protein stability index of K5D is ____.
Result: 2.41

Q: Fill in the blank: the reported protein stability index of V20P is ____.
Result: 2.44

Q: Fill in the blank: the reported protein stability index of V9A is ____.
Result: 2.58
